Where do these numbers come from? They come from ChEMBL document CHEMBL1159182.

target: UniProt:Q01959; assay: Binding constant for [3H]dopamine uptake was calculated from the Cheng-Prusoff relationship
REPORTED_PROPERTY: Ki

>>> print(df.to_string())
                                   compound  observed_value
0  CN1C2CCC1[C@@H](/C=C/Cl)[C@@H](c1ccc(Cl)cc1)C2 (stereo in doubt; 5)          880 pM

* * *

molecular target: Sodium-dependent dopamine transporter (Homo sapiens); experiment: Binding constant for the ability to displace [3H]mazindol to dopamine receptor was calculated from the Cheng-Prusoff relationship
Sequence (Q01959 whole entry): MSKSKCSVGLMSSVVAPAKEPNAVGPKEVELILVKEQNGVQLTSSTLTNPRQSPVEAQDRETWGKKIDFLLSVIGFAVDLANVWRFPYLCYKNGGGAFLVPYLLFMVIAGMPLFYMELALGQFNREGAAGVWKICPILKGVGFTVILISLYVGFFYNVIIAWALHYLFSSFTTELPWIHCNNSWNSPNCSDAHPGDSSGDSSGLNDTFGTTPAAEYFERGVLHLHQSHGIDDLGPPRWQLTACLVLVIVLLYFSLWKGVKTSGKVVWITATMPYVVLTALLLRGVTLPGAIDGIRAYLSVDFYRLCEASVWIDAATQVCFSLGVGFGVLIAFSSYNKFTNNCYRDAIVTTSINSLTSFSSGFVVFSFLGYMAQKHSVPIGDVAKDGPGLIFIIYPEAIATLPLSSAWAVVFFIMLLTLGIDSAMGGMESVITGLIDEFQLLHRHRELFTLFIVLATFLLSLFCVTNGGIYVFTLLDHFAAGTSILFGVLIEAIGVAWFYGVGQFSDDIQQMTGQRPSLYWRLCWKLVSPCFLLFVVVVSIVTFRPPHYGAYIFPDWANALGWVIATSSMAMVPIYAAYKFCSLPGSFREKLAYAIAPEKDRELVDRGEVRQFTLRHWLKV
REPORTED_PROPERTY: Ki (nM)

In [3]: df
Out[3]:
                                   compound  reported_property  observed_value
0  CN1C2CCC1[C@@H](/C=C/Cl)[C@@H](c1ccc(Cl)cc1)C2 (stereo in doubt; 5)                 Ki            0.22

* * *

Below, each of the compounds is paired with its reported pIC50 value.
target: Sodium-dependent dopamine transporter (Homo sapiens); test: Displacement of [3H]mazindol from dopamine transporter
pIC50: −log10 of the molar value.
REPORTED_PROPERTY: pIC50

                                   compound  observed_value
0  CC[C@@H]1C2CCC(C[C@@H]1c1ccc(Cl)cc1)N2C (some centres not stated)            8.46
1  CN1C2CCC1[C@@H](/C=C/Cl)[C@@H](c1ccc(Cl)cc1)C2 (stereo in doubt; 4)            9.14
2  CN1C2CCC1[C@H](C(O)C(F)(F)F)[C@@H](c1ccc(Cl)cc1)C2 (stereo in doubt; 13)            5.96
3  CN1C2CCC1[C@H](C(O)C(F)(F)F)[C@@H](c1ccc(Cl)cc1)C2 (stereo in doubt; 12)            6.78
4  CN1C2CCC1[C@@H]([C@@H](O)C(F)(F)F)[C@@H](c1ccc(Cl)cc1)C2 (some centres not stated)            8.04
5  CN1C2CCC1[C@H](C(=O)C(F)(F)F)[C@@H](c1ccc(Cl)cc1)C2 (some centres not stated)            5.92
6  CN1C2CCC1[C@@H](/C=C/Cl)[C@@H](c1ccc(Cl)cc1)C2 (stereo in doubt; 5)            9.44

* * *

target: Sodium-dependent dopamine transporter (Homo sapiens); assay: Ability to displace [3H]-Mazindol from dopamine receptor
pIC50: −log10 of the molar value.
REPORTED_PROPERTY: pIC50

                                   compound                     target_or_test_system  observed_value
0  C=C[C@@H]1C2CCC(C[C@@H]1c1ccc(Cl)cc1)N2C (stereo partly specified)  Sodium-dependent dopamine transporter (Homo sapiens)            8.92
